src = patent US9266904B2

# TEST DESCRIPTION: Human microsomal clearance assay
# Assay type: in vitro ADME
# CONDITION CONTEXT: human, 1 μM, pH 7.4
MEASUREMENT LABEL: CLh (mL/min/kg)
Provide only the numeric value, understood in mL/min/kg.

COMPOUND	MEASUREMENT LABEL	REPORTED
COC(=O)C1=C(CN2C3COCC2C(O)[C@H](CC(=O)O)C3)NC(c2nccs2)=N[C@H]1c1ccc(F)cc1Cl (some centres unmarked)	CLh	3.0
COC(=O)C1=C(CN2C3COCC2CN(C(=O)CO)C3)NC(c2nccs2)=N[C@H]1c1ccc(F)cc1Br	CLh	7.0

Query block: What does the record list as CLh for COC(=O)C1=C(CN2[C@H]3COC[C@@H]2[C@H](CC(=O)O)C3)NC(c2nccs2)=N[C@H]1c1ccc(F)cc1Br ?
Result block: 2.6

Query block: Item CCOC(=O)C1=C(CN2[C@@H]3COC[C@H]2C[C@H](CC(=O)O)C3)NC(c2nccs2)=N[C@H]1c1cccc(F)c1Cl has what recorded CLh?
Result block: 3.2

Query block: May I ask what CLh has been recorded for COC(=O)C1=C(CN2C3COCC2C(NC(C)=O)C3)NC(c2nccs2)=N[C@H]1c1ccc(F)cc1Cl (some centres unmarked) ?
Result block: 4.8

Query block: // query CLh value for entry COC(=O)C1=C(CN2[C@@H]3COC[C@H]2C[C@@H](CC(=O)O)C3)NC(c2nccs2)=N[C@H]1c1cccc(F)c1Cl
Result block: 0

Query block: Reported CLh, compound CCOC(=O)C1=C(CN2[C@H]3C[C@@H](CC(=O)O)C[C@@H]2C(F)(F)C3)NC(c2nccs2)=N[C@H]1c1cccc(F)c1Cl : ____
Result block: 3

Query block: Name the reported CLh value associated with the compound COC(=O)C1=C(CN2[C@@H]3C[C@H](CC(=O)O)C[C@H]2C(F)(F)C3)NC(c2nccs2)=N[C@H]1c1ccccc1Cl
Result block: 1.5

----------
# Tested on: HepDE19 cells
# TEST DESCRIPTION: Cytotoxicity (CCK-8 cell viability) and selectivity index
# Format: cell-based, human
# CONDITION CONTEXT: CC50 value/EC50 value
Reported Selectivity index (CC50/EC50) values for a set of compounds

COMPOUND	Selectivity index (CC50/EC50)
COC(=O)C1=C(CN2[C@@H]3CC[C@@]2(C(=O)O)COC3)NC(c2nccs2)=N[C@H]1c1ccc(F)c(F)c1C [Example 85]	>15152
COC(=O)C1=C(CN2C3COCC2C(F)(F)C3)NC(c2nccs2)=N[C@H]1c1ccc(F)cc1Cl (stereo partly shown) [Example 108]	9953
CCOC(=O)C1=C(CN2C3COCC2C(C(=O)O)C3)NC(c2nccs2)=N[C@H]1c1ccc(F)cc1Br (stereo partly shown) [Example 52]	>5587

We now examine a further compound.
Query block: Could you share which Selectivity index (CC50/EC50) value was measured for CCOC(=O)C1=C(CN2[C@@H]3COC[C@H]2C[C@H](CC(=O)O)C3)NC(c2nccs2)=N[C@H]1c1ccc(F)c(F)c1Cl [Example 69] ?
Result block: >32258

----------
# solubility thermodynamic per record follows
# TEST DESCRIPTION: Lyophilisation solubility assay (Lysa)
# Type: physicochemical
# CONDITION CONTEXT: pH 6.5, aqueous buffer, thermodynamic from solid
# Experimental: The aqueous solubility is an important physico-chemical property that plays a significant role in various physical and biological processes. […] Samples are prepared in duplicate from 10 mM DMSO stock solutions. […] After one night, the solution is filtered using a microtiter filter plate and then the filtrate and its 1/10 dilution are then analyzed by direct UV measurement or by HPLC-UV. […]

A selection of reference data follows.
MOLECULE	solubility thermodynamic
CCOC(=O)C1=C(CN2[C@@H]3COC[C@H]2C[C@H](CC(=O)O)C3)NC(c2nccs2)=N[C@H]1c1ccc(F)c(F)c1Br [Example 80]	221 µg/mL
COC(=O)C1=C(CN2C3COCC2c2c(n(C)[nH]c2=O)C3)NC(c2nccs2)=N[C@H]1c1ccc(F)cc1Cl (stereo partly drawn) [Example 33]	100 µg/mL
COC(=O)C1=C(CN2C3COCC2CN(C(C)=O)C3)NC(c2nccs2)=N[C@H]1c1ccc(F)cc1Cl [Example 15]	233 µg/mL
COC(=O)C1=C(CN2C3COCC2C(F)(F)[C@@H](CC(=O)O)C3)NC(c2nccs2)=N[C@H]1c1ccc(F)cc1Cl (stereo partly drawn) [Example 125]	170 µg/mL
COC(=O)C1=C(CN2C3COCC2CC(CC(=O)O)C3)NC(c2nccs2)=N[C@H]1c1ccc(F)c(F)c1Cl (stereo partly drawn) [Example 135]	533 µg/mL
COC(=O)C1=C(CN2C3COCC2CC(CC(=O)O)C3)NC(c2nccs2)=N[C@H]1c1ccc(F)cc1Cl (stereo partly drawn) [Example 24]	> 621 µg/mL
COC(=O)C1=C(CN2[C@@H]3C[C@H](CC(=O)O)C[C@H]2C(F)(F)C3)NC(c2nccs2)=N[C@H]1c1ccc(F)c(F)c1 [Example 114]	224 µg/mL
COC(=O)C1=C(CN2C3COCC2C(F)(F)[C@H](CC(=O)O)C3)NC(c2nccs2)=N[C@H]1c1ccc(F)cc1Cl (stereo partly drawn) [Example 126]	> 605 µg/mL

Below: the item to evaluate.
Query block: What measured solubility thermodynamic goes with COC(=O)C1=C(CN2[C@@H]3COC[C@H]2C[C@H](CC(=O)O)C3)NC(c2nccs2)=N[C@H]1c1ccc(F)cc1Br [Example 58] ?
Result block: > 701 µg/mL
